- Test system: NCI-H1944
- assay_summary: normalised cell viability (NPI; 0 = phenylarsine oxide control, 1 = DMSO control) (fraction of DMSO control); higher = more viable cells (less compound toxicity)
- condition_info: glucocorticoid arm: hydrocortisone 2.75 uM co-treatment; compound 1 µM; 6 days
Structures can show the parent of a compound that is named as a salt. Whole data set: some 1,900 compounds, median “normalised cell viability (NPI; 0 = phenylarsine oxide control, 1 = DMSO control)” near 1, cut for the lowest 2% near 0.039. Many of the other results were omitted from the sample, so the lowest values are more common in it than they were.
reported_property: normalised cell viability
No unit in the answer, please; the number alone is enough.

For O=C(O)c1ccnc(C(=O)O)c1 the compound record lists normalised cell viability as 1

For Nc1nc(Cl)nc2c1ncn2[C@@H]1O[C@H](COP(=O)(O)OP(=O)(O)OP(=O)(O)O)[C@H](O)C1O (some centres undefined) [2-Chloroadenosine triphosphate tetrasodium] the compound record lists normalised cell viability as 0.992

For Cc1nc(N=Nc2cc(S(=O)(=O)O)c3cc([N+](=O)[O-])cc(S(=O)(=O)O)c3c2)c(COP(=O)(O)O)c(C=O)c1O [PPNDS tetrasodium] the compound record lists normalised cell viability as 1

For CCCCCCCCCCCCCCCCCCOCC(COP(=O)([O-])OCC[N+](C)(C)C)OC (centres undefined) the compound record lists normalised cell viability as 1.01

For CC(C)c1cc(-c2ccc(F)c3ccccc23)nc(N)n1 the compound record lists normalised cell viability as 0.981

For O=C1c2ccccc2C(=O)c2c(NCCc3ccc(O)cc3)ccc(NCCc3ccc(O)cc3)c21 the compound record lists normalised cell viability as 1.01

For CN(C)CCC(c1ccc(Cl)cc1)c1ccccn1 (racemic) [(±)-Chlorpheniramine maleate] the compound record lists normalised cell viability as 0.983

For O=C(O)[C@H]1C[C@H](C(=O)O)N1 (relative stereo) [trans-Azetidine-2,4-dicarboxylic acid] the compound record lists normalised cell viability as 1.01

For Nc1c(O)cc(O)cc1C=Cc1ccc(O)cc1 [Aminoresveratrol sulfate] the compound record lists normalised cell viability as 1

* * *

- Test system: NCI-H1944;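 also: CTB read-out in 384-well plates, triplicate wells, NPI normalised per plate against 1 µM phenylarsine oxide (0) and 0.1% DMSO (1) controls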
- assay_summary: normalised cell viability (NPI; 0 = phenylarsine oxide control, 1 = DMSO control) (fraction of DMSO control); NCI-H1944 is a non-small cell lung cancer line; higher = more viable cells (less compound toxicity)
- condition_info: glucocorticoid arm: hydrocortisone 2.75 uM co-treatment; compound 1 µM; 6 days
Structures can show the parent of a compound that is named as a salt. Over roughly 1,900 compounds, “normalised cell viability (NPI; 0 = phenylarsine oxide control, 1 = DMSO control)” has its median near 1; the lowest 2% begin near 0.039. This is one part of a sample in which the lowest values are shown more often than they occur.
reported_property: normalised cell viability

For CN1CCc2cc(O)c(O)cc2C(c2ccccc2)C1 (configuration not stated) the compound record lists normalised cell viability as 1

For [N-]=[N+]=Nc1ccc(C(=O)CSC[C@H](NC(=O)CC[C@H](N)C(=O)O)C(=O)NCC(=O)O)cc1 the compound record lists normalised cell viability as 1.02

For Cc1ccc([N+](=O)[O-])cc1S(=O)(=O)N(C)/N=C/c1cnc2ccc(Br)cn12 the compound record lists normalised cell viability as 0.025

For Cc1[nH]c(/C=C2\C(=O)Nc3ccc(S(=O)(=O)N(C)c4cccc(Cl)c4)cc32)c(C)c1C(=O)N1CCN(C)CC1 the compound record lists normalised cell viability as 0.991

For CCCCCCCCCC(=O)NC(CN1CCOCC1)[C@H](O)c1ccccc1 (mixture of isomers) the compound record lists normalised cell viability as 1.01

For O=C1NC(=O)/C(=C/c2ccc3nccc(-c4ccncc4)c3c2)S1 the compound record lists normalised cell viability as 0.697

For Cc1[nH]c(=O)c(C#N)cc1-c1ccncc1 the compound record lists normalised cell viability as 0.996

For CC(C)C[C@H](NP(=O)(O)O[C@H]1O[C@H](C)[C@@H](O)[C@H](O)[C@@H]1O)C(=O)N[C@@H](Cc1c[nH]c2ccccc12)C(=O)O [Phosphoramidon disodium] the compound record lists normalised cell viability as 0.994

For C[C@@H](Oc1ccc(Oc2cnc3ccc(Cl)cc3n2)cc1)C(=O)O the compound record lists normalised cell viability as 1

For CN1CCC[C@@H]1Cc1c[nH]c2ccc(CCS(=O)(=O)c3ccccc3)cc12 the compound record lists normalised cell viability as 1.01

For Cc1ccc([N+](=O)[O-])cc1S(=O)(=O)N(C)C the compound record lists normalised cell viability as 1

For Nc1nc(N)c(N=O)c(OCC2CCCCC2)n1 the compound record lists normalised cell viability as 1.02

For S=C(S)OC1CC2CC1C1CCCC21 (configuration not stated) the compound record lists normalised cell viability as 1.02

For Cc1ccc(C(=O)c2cc(/C=C/C(=O)NO)n(C)c2)cc1 the compound record lists normalised cell viability as 1

For NC1CCN(O)C1=O (racemic) the compound record lists normalised cell viability as 0.983

For CCOC(=O)C1=CN(Cc2ccccc2)C=C(C(=O)OCC)C1c1ccccc1 the compound record lists normalised cell viability as 0.995

For O=C(O)C1CCNCC1 the compound record lists normalised cell viability as 1

For NCCCCCC(=O)O the compound record lists normalised cell viability as 0.976

For N=C(N)NCCCCN [Agmatine sulfate] the compound record lists normalised cell viability as 1.02

For CCCCC1(C2CCCC2)Cc2cc(OCC(=O)O)c(Cl)c(Cl)c2C1=O (stereo in doubt) [R(+)-Butylindazone] the compound record lists normalised cell viability as 0.99

For CN(N=O)C(=O)N[C@@H]1[C@@H](O)[C@H](O)[C@@H](CO)O[C@@H]1O the compound record lists normalised cell viability as 1

For N#C/C(=C/c1ccc(O)c(O)c1)C(=O)N1CCc2ccccc21 the compound record lists normalised cell viability as 0.993

For O=C1NCCc2[nH]c(-c3ccncc3)cc21 the compound record lists normalised cell viability as 1.02

For CC(/C=C/C(=O)NO)=C\[C@@H](C)C(=O)c1ccc(N(C)C)cc1 the compound record lists normalised cell viability as 2.17e-05

For CN1CCCN(C(=O)c2cccc(-c3ccc(/C=C4/C(=O)Nc5ccc(Cl)cc54)o3)c2)CC1 the compound record lists normalised cell viability as 0.717

For C/C=C1\C(=O)C[C@H]2[C@@H]3CCC4=CC(=O)CC[C@]4(C)[C@H]3CC[C@]12C [(Z)-Guggulsterone] the compound record lists normalised cell viability as 0.993

For NCC(=O)CCC(=O)O [Aminolevulinic acid hydrochloride; Aminolevulinic acid] the compound record lists normalised cell viability as 1.04

The measured values listed here are drawn from the supplement of paper PMC8285479.
